Data provenance is paper PMC11207040.

Tested on: Arthrobacter oxydans NBIMCC 9333
Type: cell-based
Conditions: peptide 10 mg/mL, 20 µL per disc, 24 h
Non-standard residues stand in square brackets, D forms with d. Residues, ends and D or L forms follow the SMILES beside them. Dab = NCC[C@H](N)C(=O)O
readout_name: Inhibition zone, A. oxydans 9333
Form entry: enter the amount, then its unit.

Notebook: pull reported Inhibition zone, A. oxydans 9333 for Arthrobacter oxydans NBIMCC 9333, entry CC[C@H](C)[C@H](NC(=O)CNC(=O)[C@H](CO)NC(=O)[C@H](CC(C)C)NC(=O)[C@@H](NC(=O)[C@H](CCN)NC(=O)CNC(=O)[C@@H](NC(=O)[C@H](CC(C)C)NC(=O)[C@@H]1CCCN1C(=O)[C@H](CC(C)C)NC(=O)[C@@H](N)Cc1ccccc1)[C@@H](C)CC)C(C)C)C(=O)N[C@@H](CC(C)C)C(N)=O [DTDab, FLPLIG-Dab-VLSGIL-NH2] (H-FLPLIG[Dab]VLSGIL-NH2; N-terminus assumed) 14.5 ± 0.5 mm

* * *

System: Arthrobacter oxydans NBIMCC 9333
Format: cell-based
Details: 10 mg/mL; zone of peptide over zone of antibiotic x 100
Non-standard residues stand in square brackets, D forms with d. Residues, ends and D or L forms follow the SMILES beside them. Dab = NCC[C@H](N)C(=O)O
For each entry below, report its Inhibition effect, A. oxydans 9333 value.
Form entry: enter the amount, then its unit.

Notebook: pull reported Inhibition effect, A. oxydans 9333 for Arthrobacter oxydans NBIMCC 9333, entry CC[C@H](C)[C@H](NC(=O)CNC(=O)[C@H](CO)NC(=O)[C@H](CC(C)C)NC(=O)[C@@H](NC(=O)[C@H](CCN)NC(=O)CNC(=O)[C@@H](NC(=O)[C@H](CC(C)C)NC(=O)[C@@H]1CCCN1C(=O)[C@H](CC(C)C)NC(=O)[C@@H](N)Cc1ccccc1)[C@@H](C)CC)C(C)C)C(=O)N[C@@H](CC(C)C)C(N)=O [DTDab, FLPLIG-Dab-VLSGIL-NH2] (H-FLPLIG[Dab]VLSGIL-NH2; N-terminus assumed) 76.3%

Notebook: pull reported Inhibition effect, A. oxydans 9333 for Arthrobacter oxydans NBIMCC 9333, entry CC[C@H](C)[C@H](NC(=O)CNC(=O)[C@H](CO)NC(=O)[C@H](CC(C)C)NC(=O)[C@@H](NC(=O)[C@H](CCCCN)NC(=O)CNC(=O)[C@@H](NC(=O)[C@H](CC(C)C)NC(=O)[C@@H]1CCCN1C(=O)[C@H](CC(C)C)NC(=O)[C@@H](N)Cc1ccccc1)[C@@H](C)CC)C(C)C)C(=O)N[C@@H](CC(C)C)C(N)=O [DTF, FLPLIG-K-VLSGIL-NH2, reference compound] (H-FLPLIGKVLSGIL-NH2) 57.5%

* * *

For each entry below, report its pIC50 value.
System: MCF-12F cells
Test: MTT antiproliferative assay, MCF-12F
Type: cell-based, human
Settings: 72 h, non-tumorigenic cell line, read-out: Mean IC50 ± SD, MCF-12F
Non-standard residues stand in square brackets, D forms with d. Residues, ends and D or L forms follow the SMILES beside them. Cit = NC(=O)NCCC[C@H](N)C(=O)O; Dab = NCC[C@H](N)C(=O)O; Dap = NC[C@H](N)C(=O)O
pIC50 is a log-scale quantity: -log10 of the concentration expressed in molar.

Query (compound): CC[C@H](C)[C@H](NC(=O)CNC(=O)[C@H](CO)NC(=O)[C@H](CC(C)C)NC(=O)[C@@H](NC(=O)[C@H](CCN)NC(=O)CNC(=O)[C@@H](NC(=O)[C@H](CC(C)C)NC(=O)[C@@H]1CCCN1C(=O)[C@H](CC(C)C)NC(=O)[C@@H](N)Cc1ccccc1)[C@@H](C)CC)C(C)C)C(=O)N[C@@H](CC(C)C)C(N)=O [DTDab, FLPLIG-Dab-VLSGIL-NH2] (H-FLPLIG[Dab]VLSGIL-NH2; N-terminus assumed) ; field requested: pIC50 3.55

Query (compound): CC[C@H](C)[C@H](NC(=O)CNC(=O)[C@H](CO)NC(=O)[C@H](CC(C)C)NC(=O)[C@@H](NC(=O)[C@H](CN)NC(=O)CNC(=O)[C@@H](NC(=O)[C@H](CC(C)C)NC(=O)[C@@H]1CCCN1C(=O)[C@H](CC(C)C)NC(=O)[C@@H](N)Cc1ccccc1)[C@@H](C)CC)C(C)C)C(=O)N[C@@H](CC(C)C)C(N)=O [DTDap, FLPLIG-Dap-VLSGIL-NH2] (H-FLPLIG[Dap]VLSGIL-NH2; N-terminus assumed) ; field requested: pIC50 3.20

Query (compound): CC[C@H](C)[C@H](NC(=O)CNC(=O)[C@H](CO)NC(=O)[C@H](CC(C)C)NC(=O)[C@@H](NC(=O)[C@H](CCCNC(N)=O)NC(=O)CNC(=O)[C@@H](NC(=O)[C@H](CC(C)C)NC(=O)[C@@H]1CCCN1C(=O)[C@H](CC(C)C)NC(=O)[C@@H](N)Cc1ccccc1)[C@@H](C)CC)C(C)C)C(=O)N[C@@H](CC(C)C)C(N)=O [DTCit, FLPLIG-Cit-VLSGIL-NH2] (H-FLPLIG[Cit]VLSGIL-NH2; N-terminus assumed) ; field requested: pIC50 3.52
